The values you see were collected from patent US4500526A.

# assay_method_text: Mouse blood levels after single intramuscular injection
# Type: in vivo, mice
# condition_description: in vivo, im, 20 mg/kg
assay_metric: AUC (ng·h/mL)

CO/N=C(\C(=O)NC1C(=O)N2C(C(=O)[O-])=C(C[n+]3ccc4sc(NC(C)=O)nc4c3)CS[C@H]12)c1csc(N)n1 (stereo partly drawn); 16000
CO/N=C(\C(=O)NC1C(=O)N2C(C(=O)[O-])=C(C[n+]3ccc4sc(NC(=O)OC)nc4c3)CS[C@H]12)c1csc(N)n1 (stereo partly drawn); 13000
Nc1nc(/C(=N/OC2(C(=O)O)CCC2)C(=O)NC2C(=O)N3C(C(=O)[O-])=C(C[n+]4ccc5scnc5c4)CS[C@H]23)cs1 (stereo partly drawn); 7900
CO/N=C(\C(=O)NC1C(=O)N2C(C(=O)[O-])=C(C[n+]3ccc4sc(N(C)C)nc4c3)CS[C@H]12)c1csc(N)n1 (stereo partly drawn); 9800
CO/N=C(\C(=O)NC1C(=O)N2C(C(=O)[O-])=C(C[n+]3ccc4sc(C(N)=O)nc4c3)CS[C@H]12)c1csc(N)n1 (stereo partly drawn); 19000
CO/N=C(\C(=O)NC1C(=O)N2C(C(=O)[O-])=C(C[n+]3ccc4scnc4c3)CS[C@H]12)c1csc(N)n1 (stereo partly drawn); 15000
CO/N=C(\C(=O)NC1C(=O)N2C(C(=O)[O-])=C(C[n+]3ccc4sc(N)nc4c3)CSC12)c1csc(N)n1 (stereo not drawn); 11000
CC(C)(O/N=C(\C(=O)NC1C(=O)N2C(C(=O)[O-])=C(C[n+]3ccc4scnc4c3)CS[C@H]12)c1csc(N)n1)C(=O)O (stereo partly drawn); 9500
CO/N=C(\C(=O)NC1C(=O)N2C(C(=O)[O-])=C(C[n+]3ccc4sc(C(=O)O)nc4c3)CS[C@H]12)c1csc(N)n1 (stereo partly drawn); 10000
CO/N=C(\C(=O)NC1C(=O)N2C(C(=O)[O-])=C(C[n+]3ccc4sc(NC(=O)CN)nc4c3)CS[C@H]12)c1csc(N)n1 (stereo partly drawn); 16000
CCO/N=C(\C(=O)NC1C(=O)N2C(C(=O)[O-])=C(C[n+]3ccc4scnc4c3)CSC12)c1csc(N)n1 (stereo not drawn); 8400
CO/N=C(\C(=O)NC1C(=O)N2C(C(=O)[O-])=C(C[n+]3ccc4sc(C)nc4c3)CSC12)c1csc(N)n1 (stereo not drawn); 8600
